- Subject of test: T1, human Siglec-5 expressed on human primary cells (human, UniProt O15389 17-551)
- T1 construct: Endogenous receptor on human primary monocytes, dendritic cells, macrophages and neutrophils; also called CD170
- T1 sequence: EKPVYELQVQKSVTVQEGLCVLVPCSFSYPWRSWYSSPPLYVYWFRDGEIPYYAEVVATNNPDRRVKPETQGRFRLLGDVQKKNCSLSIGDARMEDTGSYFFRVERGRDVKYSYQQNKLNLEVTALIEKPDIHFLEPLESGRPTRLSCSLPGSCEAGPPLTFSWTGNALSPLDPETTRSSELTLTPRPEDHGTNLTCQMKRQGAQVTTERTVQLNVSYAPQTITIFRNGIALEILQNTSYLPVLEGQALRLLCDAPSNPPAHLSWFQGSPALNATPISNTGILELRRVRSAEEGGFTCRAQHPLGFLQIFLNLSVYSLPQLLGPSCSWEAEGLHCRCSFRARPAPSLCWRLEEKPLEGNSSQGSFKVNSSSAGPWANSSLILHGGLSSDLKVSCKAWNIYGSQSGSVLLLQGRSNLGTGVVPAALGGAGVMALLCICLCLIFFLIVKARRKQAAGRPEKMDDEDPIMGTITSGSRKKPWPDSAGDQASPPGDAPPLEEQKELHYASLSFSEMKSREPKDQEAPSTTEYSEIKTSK
- Assay protocol: flow cytometry, human primary monocytes, 10 ug/ml mAb
Quantity measured: % Positive (%)
Give just the numeric value; % need not be written.

Prompt: Consider the binder shown here: anti-Siglec-5 monoclonal antibody 5H2 (antibody, IgG1, V domains shown) VH: EVQLQQSGPELVKPGASVKVSCKASGYSFTDYNMYWVKQSHGKSLEWIGYIDPYNGGTSYNQKFKGKATLTVDKSSSTAFMLLNSLTSEDSAVYYCALYYDYDGIPYWGQGTLVTVSA VL: DIVMTQSQKFMSTSVGDRVSVTCKASQNVGTNVAWYRQKPGQSPKALIYSASYRYNGVPDRFTGSGSGTDFTLTISNVQSEDLAEYFCQQYNSYPYTFGGGTKLEIK What is its recorded % Positive?
Response: 96.1

Prompt: Consider the binder shown here: anti-Siglec-5 monoclonal antibody 10B6 (antibody, IgG1, V domains shown) VH: EIQLQQSGPELVKPGASVKVSCKASGYSFTDYNMYWVKQSHGKSLECFGYIDPYNGGPYYNQKFKGKATLTVDKSSSTAFMHLNSLTSEDSAVYYCAFYYGYYGVPYWGQGTLVTVSA VL: DIVMTQSQKFMSTSVGDRVSVTCKASHNVGTSVAWYQQKPGQSPKSLIYSASYRYSGVPDRFTGSGSGTDFTLTISNVQSEDLAEYFCQQYNSYPLTFGSGTKLEIK What is its recorded % Positive?
Response: 98.2

Prompt: Consider the binder shown here: anti-Siglec-5 monoclonal antibody 2G5 (antibody, IgG1, V domains shown) VH: EIQLQQSGPELVKPGASVKVSCKASGYSFTDYNMYWVKQSHGKSLEWIGYIDPYNGNTTYNQRFKGKATLTVDKSSSTAFMHLNSLTSEDAAVYYCATFYGFDGFAYWGQGSLVAVSA VL: QAVVTQESALTTSPGETVTLTCRSSTGAVTTSNYANWVQEKPDHLFTGLIGTTNNRAPGVPARFSGSLIGDKAALTITGAQTEDEAIYFCALWYSNHLVFGGGTKLTVLG What is its recorded % Positive?
Response: 97.3

Prompt: Consider the binder shown here: anti-Siglec-5 monoclonal antibody 10F9 (antibody, IgG1, V domains shown) VH: EIQLQQSGPELVKPGASVKVSCKASGYSFTGYNMYWVKQSHGKSFEWIGYIDPYTGGTSYNQRFKGKATLTVDKSSSTAFMHLNSLTSEDSAIYYCALFYDYDGFPYWGQGTLVTVSA VL: DIVMTQSQKFMSTSVGDRVSVTCKASQNVDTNVAWYQQKPGQSPKALIYSASYRYSGVPDRFTGSGSGTDFTLTISNVQSEDLAEYFCQQYNSYPYTFGGGTKLEIK What is its recorded % Positive?
Response: 95.3

Prompt: Consider the binder shown here: anti-Siglec-5 monoclonal antibody 8A1 (antibody, IgG1, V domains shown) VH: EIQLQQSGPELVKPGASVKVSCKASDYAFTSYNIYWVKQSHGKSLEWIGYIDPYNGGTSYNQTFKGKATLTVDKSSSTAYMHLNSLTSEDSAVYYCAMKVGYEAMDYWGQGTSVTVSS VL: DIVMTQSQKFMSTSVGDRVSVTCKASQNVGTYVAWYQQKPGQSPKALIYSASYRYSGVPDRFTGSGSGTDFTLNISNVQSEDLAEYFCQQFNSYPYTFGGGTKLEIK What is its recorded % Positive?
Response: 98
